FYI, the data here is from ChEMBL document CHEMBL4828780.

assay: Inhibition of SARS-CoV 3C-like protease using Dabcyl-KTSAVLQ-SGFRKME-Edans peptide as substrate incubated for 60 mins by FRET assay
pKi: −log10 of the molar value.
Please enter Y where pKi is greater than or equal to 9, and N where it is lower.

| smiles_record | answer_label |
| --- | --- |
| COc1cccc2[nH]c(C(=O)N[C@@H](CC(C)C)C(=O)N[C@@H](C[C@@H]3CCNC3=O)C(=O)COC(=O)CN(C)C)cc12 | N |
| COc1cccc2[nH]c(C(=O)N[C@@H](CC(C)C)C(=O)N[C@@H](C[C@@H]3CCNC3=O)C(=O)COC(=O)[C@@H]3CCCN3C)cc12 | N |
| COc1cccc2[nH]c(C(=O)N[C@@H](CC(C)C)C(=O)N[C@@H](C[C@@H]3CCNC3=O)C(=O)COC(=O)[C@H]3CCCN3C)cc12 | Y |
